Biological target: PSG G335A (PSD-95)
Assay: fluorescence polarisation; displacement of 5 nM FITC-15 AA CRIPT from PDZ3 or a PSG variant by unlabelled acetylated peptide (2-fold series), room temperature, technical triplicates; Ki calculated from IC50 (Nikolovska-Coleska); buffer: methods 50 mM sodium phosphate pH 7.45, 21 mM KCl, 0.1% Tween 20, 1 mM TCEP; legend of Figure 2: 50 mM Tris, 100 mM NaCl, 1 mM TCEP, 0.1% Tween 20
pIC50: −log10 of the molar value. Ends that are not written are not given here.
measurementType: pIC50

binder	measurementType	measuredResult
Ac-YLTGAPLATSDETSI	pIC50	3.12
Ac-YQSGPFIWIPSKEKL	pIC50	2.67
Ac-YQEQNKVLWIPASPL	pIC50	2.99
Ac-YDVVAVYPNAKVELV	pIC50	2.82
Ac-YPPSSPTLSVSSTSL	pIC50	2.84
Ac-YDKPLSKKHAHSVNF	pIC50	2.69
